# Target entity: T1, FZD10 cysteine-rich domain (CRD), MYC-tagged and GPI-anchored on CHO cells (human, UniProt Q9ULW2 30-156, GPI anchor)
# T1 construct: also called FZD10 CRD; CHO-myc-FZDGPI; not shown: MYC tag and GPI anchor signal
# T1 sequence: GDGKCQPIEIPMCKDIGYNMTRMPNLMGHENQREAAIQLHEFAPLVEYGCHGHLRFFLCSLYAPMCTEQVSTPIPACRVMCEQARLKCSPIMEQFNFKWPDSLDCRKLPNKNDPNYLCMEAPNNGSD
# Method summary: immunofluorescence, CHO-CRD cells
Measured endpoint: binding result

1) Fab-2932 (Fab, V domains shown, Fab; also called Fv-2932) VH: EVQLVESGGGLVQPGGSLRLSCAASGFNISYSYMHWVRQAPGKGLEWVASIYSSYSSTSYADSVKGRFTISADTSKNTAYLQMNSLRAEDTAVYYCARGALDYWGQGTLVTVSS VL: DIQMTQSPSSLSASVGDRVTITCRASQSVSSAVAWYQQKPGKAPKLLIYSASSLYSGVPSRFSGSRSGTDFTLTISSLQPEDFATYYCQQWYGSFALITFGQGTKVEIK: no binding
2) Fab-2909 (Fab, V domains shown, Fab; also called Fv-2909) VH: EVQLVESGGGLVQPGGSLRLSCAASGFNISSSYMHWVRQAPGKGLEWVASISSSSGYTSYADSVKGRFTISADTSKNTAYLQMNSLRAEDTAVYYCARTVRGSKKPYFSGWAMDYWGQGTLVTVSS VL: DIQMTQSPSSLSASVGDRVTITCRASQSVSSAVAWYQQKPGKAPKLLIYSASSLYSGVPSRFSGSRSGTDFTLTISSLQPEDFATYYCQQSWSYHYLITFGQGTKVEIK: no binding
3) Fab-2899 (Fab, V domains shown, Fab; also called Fv-2899) VH: EVQLVESGGGLVQPGGSLRLSCAASGFNLYYYYMHWVRQAPGKGLEWVASIYPSSGSTSYADSVKGRFTISADTSKNTAYLQMNSLRAEDTAVYYCARGALDYWGQGTLVTVSS VL: DIQMTQSPSSLSASVGDRVTITCRASQSVSSAVAWYQQKPGKAPKLLIYSASSLYSGVPSRFSGSRSGTDFTLTISSLQPEDFATYYCQQWYSSYGLITFGQGTKVEIK: no binding
